Source listed as patent US20250027068.

target: pooled human IgG
REPORTED_METRIC: Enzyme Activity Endpoint Assay: Fab′2 (ng/µL)
Give bare numbers, in ng/µL.

// known answers, use as guide
[[record]]
protein = "PRT-592 (protein) MANQEIRYSEETPSTITSVWTKGVTPPTDFIQNEDVLHAPYIANQGWYDITKTFNGKDDLLCGAATAGNMLHWWFDQNKEQIENYLKKHPEKQKINFNGEQMFDVKEAIDTKNSQTDSALFEYFKDKAFPYLSTKHLGVFPDHVIDMFINGYRLSLTNHGPTPVKRGTKDPRGGIFDAVFTRGDQSKLLTSRHDFKEKTLNEISDLIKQELTEGKALGLSHTYANVRINHVINLWGADFNAEGNLEAIYVTDSDSNASIGMKKYYVGVNSAGKVAISAKEIEGDNIGAQVLGLFTLSTGQDIWNQTNLEHHHHHH"
unit_of_measure = "ng/µL"
val = 664

[[record]]
protein = "PRT-540 (protein) MANQEIRYSKNENPNVTIKWVHGIGEPTQAEKEKIEFYWYETNTTKFFNNRKVTHLGDSNQCWAKTASNMLHWWFVQNKENINKYIEKKNITGKINFNGEQMFDVKEGIDDNQEKEKSYIANTFRTKKAHNLSTKHKGDYIINGLAWYLYGLNNFKNAHGPTPVKKKPKFYGPALFKDVFNRGDGNTPIIEETDFKEYTKKEFEDTLSEALDSKKAIGINIYGSNVDYGHAITLWGAAFDEDENIIAIYVVDNNFKFENRIFPYGIWYEKEGRPYLFNYEINSFVKNRYVGEITTLDKGEAQWQETNLEHHHHHH"
unit_of_measure = "ng/µL"
val = 0

[[record]]
protein = "PRT-287 (protein) MVTSVWTKGVTPPAKFTQGEDVFHAPYVANQGWYDITKEFNGKDDLLCGAATAGNMLHWWFDQNKEKIEAYLKKHPDKQKIMFGDQELLDVRKVINTKGDQTNSELFNYFRDKAFPNLSARRIGVMPDLVLDMFINGYYLNVYKTQTTDVNRTYQEKDRRGGIFDAVFTRGDQSKLLTSRHDFKEKNLKEISDLIKKELTEGKALGLSHTYANVRIGHVINLWGADFDSNGNLKAIYVTDSDSNASIGMKKYGVGVNSAGKVAISAKEIKEDNIGAQVLGLFTLSTGQDSWNQTN"
unit_of_measure = "ng/µL"
val = 700


Let us move to another entry and its Enzyme Activity Endpoint Assay: Fab′2.
Can you share its Enzyme Activity Endpoint Assay: Fab′2? I mean this protein: PRT-48 (protein) MANQEIRYSEVTPYHVTSVWTKGVTPPANFTQGEDVFHAPYKANQGWYDINKTFNGGDDLLCGAATAGNMLHWWFDQNKDYIDRYLEEHPEKQKINFNGEQMFDVKEAIDTKNNQTDSKLFEYFKEKAFPYLSTKHLGVFPDRVIDMFINGYRLSLTNHGPTPVKEGSKDPRGGFFDDVFTRGDQSKLLTSRHDFKEKNLKEISDLIKKELKEGKALGLSHTYANVRINHVINLWGADFDSNGNLKAIYVTDSDSNASVGMKKYRVGVNSAGKVAISAKEIKEDNIGAQVLGLFTLSTGQDSWNQTN
0
